# Assay text: growth rescue of sdo1-depleted yeast, primary screen, S. cerevisiae, bone marrow failure model (AID 817);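 also: z-score against mean and SD of all compound wells on the same plate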
# Measurement parameters: S. cerevisiae sdo1-depleted JHY4D growth rescue, OD600; measured here: growth rescue at 24 h; at 10 µM; stronger effect = higher value; pdr5 snq2 efflux-pump mutant strain
The campaign covered roughly 140,000 compounds. About 300 (0.21%) were called active. The full list was thinned out, with actives kept by preference.
Parameter measured: z-score
Answers are plain numbers.

| Compound | Parameter measured | Value reported |
| --- | --- | --- |
| Cc1c(Cl)cccc1NC(=O)Nc1ccc(C(=O)N2CCCC2)cc1 | z-score | -0.18 |
| C=CCN1C(=O)C(Cc2ccc(OCC)cc2)SC1=Nc1ccc(C(=O)O)cc1 (stereo not drawn) | z-score | -0.75 |

Would you mind giving z-score for every compound in the list below?
1. Cc1ccc(Sc2ccncc2S(N)(=O)=O)cc1
2. CCCCC(NS(=O)(=O)c1ccc(C)cc1)C(=O)Oc1ccc2c3c(c(=O)oc2c1)CCC3 (stereo not drawn)

Completion:
0.76
0.78

---

Exercise: state measured z-score for each of the molecules provided.
# Assay text: growth rescue of sdo1-depleted yeast, primary screen, S. cerevisiae, bone marrow failure model (AID 817);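 also: z-score against mean and SD of all compound wells on the same plate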
# Measurement parameters: S. cerevisiae sdo1-depleted JHY4D growth rescue, OD600; measured here: growth rescue at 24 h; at 10 µM; stronger effect = higher value; pdr5 snq2 efflux-pump mutant strain
In all, about 140,000 compounds went through this assay and about 300 (0.21%) were called active. Many of the other results were omitted from the sample, so actives are more common in it than they were.
Give bare numbers.

Answered cases to consult:
| Molecule | z-score |
| --- | --- |
| COc1ccc(CC(=O)Nc2cc(S(=O)(=O)N3CCCCC3)ccc2N2CCN(C)CC2)cc1 | -0.4 |
| O=C(N/N=C/c1ccc2c(c1)OCO2)c1ccc(Cn2cc([N+](=O)[O-])cn2)o1 | -0.21 |
| NC(=S)N/N=C/c1coc2cc(Cl)ccc2c1=O | -1.16 |
| COC(=O)c1onc(-c2c(OC)cc(OC)cc2OC)c1C(=O)OC | 0.26 |
| O=C(/C=C/c1ccc(F)cc1)Nc1cccc(S(=O)(=O)Nc2cccc(C(F)(F)F)c2)c1 | -0.2 |

Would you mind giving z-score for every molecule in the list below?
1. O=c1c2sccc2nc(SCc2cc(=O)n3ccccc3n2)n1-c1ccc(Br)cc1
2. Cc1cc(Cl)ccc1OCCCC(=O)NCc1ccncc1
3. COc1ccc(C(=O)NC2(C(F)(F)F)NC(=O)N(CCCc3ccccc3)C2=O)c(OC)c1OC (centres undefined)
4. CS(=O)(=O)Nc1ccc(C(=O)N2CCCC2)cc1
5. COC(=O)c1c(NC(=O)CN2C(=O)NC(CCc3ccccc3)C2=O)sc2c1CCCCC2 (centres undefined)
6. Cc1sc2nc(CC(N)=O)[nH]c(=O)c2c1-c1ccccc1
7. CCOc1ccc(C(=O)NC(=S)Nc2ccc(NC(=O)C(C)C)cc2)cc1[N+](=O)[O-]

Completion:
1. 0.04
2. -0.98
3. 0.17
4. 8.64
5. 0.79
6. 0.6
7. 0.38

Would you mind giving z-score for every molecule in the list below?
1. S=C(NCCc1ccccc1)NCc1ccccc1Cl
2. C=CCOc1c(Br)cc(/C=N\n2nnnc2N)cc1OC
3. O=C(CSc1nc2ccccc2c(=O)n1CCCO)N1CCc2ccccc21
4. CCOC(=O)C(C)Sc1nnc(CSc2nc3nc(C)cc(C)n3n2)o1 (centres undefined)
5. O=C1NC(c2ccccc2)CCC1(Cl)Cl (centres undefined)
6. c1ccc(C2CNCc3c2ccc2ccccc32)cc1 (centres undefined)

Completion:
-1.22
0.27
-0.81
0.13
-0.01
-1.37

Would you mind giving z-score for every molecule in the list below?
1. NC(=O)CCC(NS(=O)(=O)c1ccc(Cl)cc1)C(=O)NCc1ccccc1Cl (centres undefined)
2. COc1ccc(/C(C)=N/Nc2cc(C(F)(F)F)ccc2Cl)c(OC)c1
3. CS(=O)(=O)N(Cc1ccccc1)c1ccc(C(=O)NN=C2CCCCCC2)cc1
4. Cc1cc(OCCN2CCCC2)cc(C(C)C)c1

Completion:
1: -1.21; 2: -0.33; 3: -0.83; 4: -1.82

Would you mind giving z-score for every molecule in the list below?
1. CCN(CC)S(=O)(=O)c1cc([N+](=O)[O-])ccc1N=Nc1c(O)n(C)c2ccccc12
2. Cc1ccc(Nc2cc(C)nc3c(C)ccc([N+](=O)[O-])c23)cc1

Completion:
1. 0.64
2. -1.28
